A collection of compounds and their measured TGI
# Tested on: HOP-62 NSCLC
# Test Name: NCI tumour cell line growth inhibition, 48 h
Property Measured: TGI

| Compound | Result |
| --- | --- |
| O=C1c2cccnc2-c2nc(-c3ccccc3[N+](=O)[O-])cc3c2c1nc1ccccc13 | 41 µM |
| CC1=NN(c2nc(N)nc(/C(C#N)=C/c3ccccc3O)n2)C(C)(C)C1 | 38.8 µM |
| COc1ccccc1CCN1CCN(CCCc2ccccc2)CC1 | > 100 µM |
| O=C(CSC(=S)N1CCCCC1)Nc1nc2c(s1)CCCC2 | > 100 µM |
| Cc1nc2c(nc1C)C(=O)c1ccccc1C2=O | 10.3 µM |
| O=C(OCc1ccccc1)N(CCCCN(CCCNC(=O)C(F)(F)F)C(=O)OCc1ccccc1)CCCNC(=O)C(F)(F)F | > 100 µM |
| O=C(O)C(Cc1ccccc1)N1C(=O)N/C(=C\c2ccc(F)cc2)C1=O (stereo unspecified) | > 100 µM |
| NC1CC(=O)c2cscc21 (stereo unspecified) | > 100 µM |
| C[n+]1c2ccccc2c(NCC(=O)O)c2ccccc21 | > 100 µM |
| O=c1c2cccnc2n2n1Cc1ccccc1C2 | > 100 µM |
| O=C1C=Cc2c(Br)sc(Br)c21 | 84.8 µM |

----------
# Tested on: SR leukemia
# Test Name: NCI tumour cell line growth inhibition, 48 h

| Compound | TGI |
| --- | --- |
| N#CC(C#N)=C1C(=Cc2ccc(OCCCCCCCCCCSSCCCCCCCCCCOc3ccc(C=C4C(=C(C#N)C#N)c5ccccc5C4=C(C#N)C#N)cc3)cc2)C(=C(C#N)C#N)c2ccccc21 | 68 µM |
| CC1=C(C(=O)OCCO[N+](=O)[O-])C(c2cccc([N+](=O)[O-])c2)C(C(=O)OC(C)C)=C(C)N1 (stereo not given) | > 100 µM |
| O=C1c2ccccc2C(=O)c2sc(Nc3cccc(Cl)c3)nc21 | 5.47 µM |
| CC1CN1P1(N2CC2C)=NP(N2CC2C)(N2CC2C)=NP(N2CC2C)(N2CC2C)=N1 (stereo not given) | > 50 µM |
| COc1ccc(-n2/c(=N/C(=S)N(C)C)ss/c2=N\C(=S)N(C)C)cc1 | > 100 µM |

----------
A collection of compounds and their measured TGI
# Tested on: NCI-H23 lung
# Test Name: NCI tumour cell line growth inhibition, 48 h

| Compound | Scale Unit | Inequality Sign | TGI |
| --- | --- | --- | --- |
| O=C(O)C(Cc1ccccc1)N1C(=O)N/C(=C\c2ccc(F)cc2)C1=O (stereo unspecified) | µM | > | 100 |
| NC1CCC(Nc2nc(NCc3ccc(-c4ccco4)nc3)c3ncn(C4CCCC4)c3n2)CC1 (stereo unspecified) | µM | = | 0.0953 |
| CN(C)CCNc1ccc([N+](=O)[O-])c2sc3ccccc3c(=O)c12 | µM | = | 29.5 |
| CC(=O)NC1=C(NCC(C)(C)C)C(=O)c2ccccc2C1=O | µM | > | 100 |
| CN(C)c1ccc(C2CC(c3ccc4ccccc4c3O)=NN2)cc1 (stereo unspecified) | µM | > | 100 |
| Nc1ncc(Br)c(NCC2(CO)CCC2)n1 | µM | > | 100 |
| CC[C@@]12CCCN3CC[C@]4(c5cccc(OC)c5N(C(C)=O)[C@@H]4CC1)[C@H]32 | µM | > | 100 |
| CC(=O)OC(C)C(=O)C1c2cccc(O)c2C(=O)c2c(O)cc(C)cc21 (stereo unspecified) | µM | = | 1.15 |
| O=C(Nc1ccccc1)OCCN=C1c2ccccc2C(Br)C(Br)c2ccccc21 (stereo unspecified) | µM | = | 25.9 |
| COc1ccc(-c2cc(=O)c3ccc(O)cc3o2)c(OC)c1OC | µM | > | 100 |
| O=C(Nc1ccc(F)cc1F)c1cc(I)ccc1O | µM | = | 10.4 |

Ref: PubChem BioAssay (NCI)
